Tested on: A549 NSCLC
Test: NCI tumour cell line growth inhibition, 48 h
The following compounds are listed with their measured TGI values.

compound	TGI
COC(=O)[C@@H]1[C@@H](c2cccc(Cl)c2)[C@H](C(=O)OC)C2(C[C@@]1(C)O)NCCS2 (stereo partly specified)	> 100 µM
COc1ccc2c(C)cc(N/N=C/c3ccc(OC)c4ccccc34)nc2c1	34.8 µM
COc1ccc(C(=O)/C=C/c2ccc(C)cc2)cc1OC	26 µM

Query: Request - read-out TGI | tested on A549 NSCLC | compound "[N-]=[N+]=C1N=CN=C1c1ncn[nH]1"
Reply: > 100 µM

Query: Request - read-out TGI | tested on A549 NSCLC | compound CC(C(=O)c1ccccc1)C(c1ccccc1)N1CCOCC1 (stereo unspecified)
Reply: > 100 µM

Query: Request - read-out TGI | tested on A549 NSCLC | compound "COc1cc(NC(N)=NCCC(C)(C)Oc2ccc(C(F)(F)F)cc2)ncc1C#N"
Reply: 3.18 µM

Query: Request - read-out TGI | tested on A549 NSCLC | compound "COc1ccc(-c2cc(=O)c3cc4c(cc3[nH]2)OCO4)cc1OC"
Reply: > 100 µM

Query: Request - read-out TGI | tested on A549 NSCLC | compound "O=C(NCCC1([N+](=O)[O-])CCN(C(=O)c2ccccc2)CC1)c1ccccc1"
Reply: > 100 µM

Query: Request - read-out TGI | tested on A549 NSCLC | compound CC(=O)OCC1OC(n2c(-c3ccc(Cl)cc3)ccc(C#N)c2=S)C(OC(C)=O)C(OC(C)=O)C1OC(C)=O (stereo unspecified)
Reply: > 100 µM

Query: Request - read-out TGI | tested on A549 NSCLC | compound "CCOC(=O)N1CCN(c2nc(Nc3cc(C)[nH]n3)c3ccccc3n2)CC1"
Reply: 28.8 µM

Each recorded value in this set is attributed to PubChem BioAssay (NCI).
